B1: Glucocorticoid receptor, residues 419 to 494; numbered along this chain, P04150 (parent)
chain: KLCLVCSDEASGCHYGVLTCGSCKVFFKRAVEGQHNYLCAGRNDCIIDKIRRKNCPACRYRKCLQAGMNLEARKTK

Variants of: B1
PROTOCOL_TEXT: abundance fitness (aPCA) (normalised: wild type 0, dead -1); higher = more abundant; growth selection in yeast, the domain comes from the species named
TEST_SETTINGS: Homo sapiens
Our labelling divides records by abundance fitness into ranges: bucket A: < -0.2; bucket B: ≥ -0.2 and < -0.05; bucket C: ≥ -0.05

Sort into band: R29Y bucket B

Sort into band: R42H bucket C

Sort into band: C3L bucket A

Sort into band: K49H bucket C

Sort into band: F27P bucket A

Sort into band: C63W bucket A

Sort into band: C55G bucket A

Sort into band: H14L bucket B

Sort into band: C45Y bucket A

Sort into band: Y37N bucket C

Sort into band: Y37G bucket B

Sort into band: K76H bucket B

Sort into band: S7E bucket C

Sort into band: R29S bucket B

Sort into band: G21Y bucket C

Sort into band: L18S bucket C

Sort into band: D48A bucket A

Sort into band: V31K bucket B

Sort into band: K53R bucket C

Sort into band: F26T bucket A

Sort into band: L38P bucket B

Sort into band: Q34M bucket C

Sort into band: E9Q bucket C

Sort into band: K24W bucket C

Sort into band: A66I bucket A

Sort into band: Q34Y bucket B

Sort into band: V5F bucket A

Sort into band: A10S bucket B

Sort into band: G33M bucket B

Sort into band: V5C bucket A

Sort into band: G21K bucket C

Sort into band: C20W bucket A

Sort into band: K28S bucket B

Sort into band: N54S bucket B

Sort into band: D44G bucket B

Sort into band: D44S bucket B

Sort into band: C6I bucket A

Sort into band: C58R bucket A

Sort into band: K62Y bucket B

Sort into band: R29K bucket C

Sort into band: K76D bucket C

Sort into band: S7K bucket C

Sort into band: Y60D bucket A

Sort into band: N36C bucket B

Sort into band: E9T bucket C

Sort into band: R59K bucket A

Sort into band: A30R bucket A

Sort into band: H35L bucket C

Sort into band: K28A bucket B

Sort into band: K28M bucket C

Sort into band: T19C bucket C

Sort into band: A40H bucket B

Sort into band: L70G bucket B

Sort into band: C39G bucket A

Sort into band: S11A bucket C

Sort into band: T75N bucket C

Sort into band: K28R bucket C

Sort into band: M68I bucket A

Sort into band: C3T bucket A

Sort into band: A57T bucket A

Sort into band: V5S bucket A

Sort into band: C20T bucket A

Sort into band: C55W bucket A

Sort into band: H35C bucket B

Sort into band: Y15C bucket B

Sort into band: F26Q bucket A

Sort into band: G16M bucket A

Sort into band: Y15R bucket B

Sort into band: K49F bucket C

Sort into band: H14A bucket B

Sort into band: V25D bucket C
